Listed binders paired with reported In vitro activity compared with native peptide (%) vs. Glucagon
STUDY TARGET: human GCG receptor (human, UniProt P47871 26-477)
Sequence (P47871 26-477): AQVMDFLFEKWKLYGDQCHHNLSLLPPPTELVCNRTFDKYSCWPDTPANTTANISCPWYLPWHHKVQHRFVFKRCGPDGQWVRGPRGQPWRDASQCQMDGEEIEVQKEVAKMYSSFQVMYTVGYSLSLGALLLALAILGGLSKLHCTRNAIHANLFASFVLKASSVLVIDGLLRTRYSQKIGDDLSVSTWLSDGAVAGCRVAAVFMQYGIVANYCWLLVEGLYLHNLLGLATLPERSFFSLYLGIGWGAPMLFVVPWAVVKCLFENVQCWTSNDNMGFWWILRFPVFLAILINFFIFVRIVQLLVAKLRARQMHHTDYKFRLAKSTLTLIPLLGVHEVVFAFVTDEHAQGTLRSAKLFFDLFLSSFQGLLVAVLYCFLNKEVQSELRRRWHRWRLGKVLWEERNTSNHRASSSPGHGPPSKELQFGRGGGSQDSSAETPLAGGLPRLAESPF
PROCEDURE SUMMARY: cell-based or functional assay
Bridges are numbered along the chain shown (N, C = ends). Where no end group is shown, it is not given here. [ ]: non-standard residue; d: D form. Aib = CC(C)(N)C(=O)O
Record the value in %, omitting the unit from your answer.

BINDER | OBSERVED VALUE
H[Aib]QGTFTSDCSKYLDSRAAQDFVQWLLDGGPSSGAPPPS [Triple agonist of SEQ ID NO: 26] | 0.2

Next item in the queue.
QUERY: Sample Y[Aib]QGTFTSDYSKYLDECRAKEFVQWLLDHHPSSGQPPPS (bridge 16-20) [Triple agonist of SEQ ID NO: 21] — what was its In vitro activity compared with native peptide (%) vs. Glucagon?
RESULT: 267
